assay: Drug level in Swiss mouse brain at 10 mg/kg, sc administered as single dose measured 1 hr post dose; type: ADME, organism-based; parameters: dose 10 mg/kg, route subcutaneous; details: read-out: Drug uptake
PARAMETER: concentration at 1 h (ng/mL)
Note: unit ng/mL is implicit; provide only the numeric part.

These recorded examples may help you get a feel for the data.
> print(dat)
                           smiles.structure             parameter  test.value
1  CCc1nnc2c(C#N)c(N3CCC(c4ccccc4)CC3)ccn12  concentration at 1 h         135
2  Clc1c(N2CCC(c3ccccc3)CC2)ccn2c(CC3CC3)nnc12  concentration at 1 h        3830
3  FC(F)(F)Cc1nnc2c(Cl)c(N3CCC(c4ccccc4)CC3)ccn12  concentration at 1 h        2090

Asked: Which concentration at 1 h is reported for this compound? FC(F)(F)c1c(N2CCC(c3ccccc3)CC2)ccn2c(CC3CC3)nnc12
Given back: 849

###

assay: Half life in Sprague-Dawley rat at […], iv; assay type: ADME, organism-based; parameters: dose 2.5 mg/kg, route intravenous; details: in vivo
The following compounds are listed with their measured half-life values.
Note: unit h is implicit; provide only the numeric part.

> print(dat)
                           smiles.structure  unit.abbreviation  test.value
1  FC(F)(F)C1(c2ccccc2)CCN(c2ccn3c(CC4CC4)nnc3c2Cl)CC1                  h         2.1
2  FC(F)(F)Cc1nnc2c(Cl)c(N3CCC(F)(c4ccccc4)CC3)ccn12                  h         2.6
3  CCc1nnc2c(C(F)(F)F)c(N3CCC(c4ccccc4)CC3)ccn12                  h         1.9

Turning to the following compound.
Asked: Which half-life is reported for this compound? FC(F)(F)c1c(N2CCC(c3ccccc3)CC2)ccn2c(CC3CC3)nnc12
Given back: 2.7

###

test: Ratio of drug level in brain to plasma in Swiss mouse at 10 mg/kg, sc administered as single dose measured 1 hr post dose; type: ADME, organism-based; design: dose 10 mg/kg, route subcutaneous; details: read-out: BPR
PARAMETER: Kp at 1 h

> print(dat)
                           smiles.structure  test.value
1  FC(F)(F)c1c(N2CCC(c3ccccc3)CC2)ccn2c(CC3CC3)nnc12         1.4
2  FC(F)(F)Cc1nnc2c(Cl)c(N3CCC(F)(c4ccccc4)CC3)ccn12         1.4
3  CCc1nnc2c(C(F)(F)F)c(N3CCC(c4ccccc4)CC3)ccn12         1.3

Turning to the following compound.
Asked: Which Kp at 1 h is reported for this compound? FC(F)(F)Cc1nnc2c(Cl)c(N3CCC(c4ccccc4)CC3)ccn12
Given back: 1.8

###

target: Metabotropic glutamate receptor 2 (Homo sapiens, UniProt Q14416); assay: Positive allosteric modulator activity at human mGlu2R expressed in CHO cells incubated for 30 mins by [35S]GTPgammaS binding assay relative to control; type: functional, cell-based
Sequence (Q14416 19-872 limits assumed): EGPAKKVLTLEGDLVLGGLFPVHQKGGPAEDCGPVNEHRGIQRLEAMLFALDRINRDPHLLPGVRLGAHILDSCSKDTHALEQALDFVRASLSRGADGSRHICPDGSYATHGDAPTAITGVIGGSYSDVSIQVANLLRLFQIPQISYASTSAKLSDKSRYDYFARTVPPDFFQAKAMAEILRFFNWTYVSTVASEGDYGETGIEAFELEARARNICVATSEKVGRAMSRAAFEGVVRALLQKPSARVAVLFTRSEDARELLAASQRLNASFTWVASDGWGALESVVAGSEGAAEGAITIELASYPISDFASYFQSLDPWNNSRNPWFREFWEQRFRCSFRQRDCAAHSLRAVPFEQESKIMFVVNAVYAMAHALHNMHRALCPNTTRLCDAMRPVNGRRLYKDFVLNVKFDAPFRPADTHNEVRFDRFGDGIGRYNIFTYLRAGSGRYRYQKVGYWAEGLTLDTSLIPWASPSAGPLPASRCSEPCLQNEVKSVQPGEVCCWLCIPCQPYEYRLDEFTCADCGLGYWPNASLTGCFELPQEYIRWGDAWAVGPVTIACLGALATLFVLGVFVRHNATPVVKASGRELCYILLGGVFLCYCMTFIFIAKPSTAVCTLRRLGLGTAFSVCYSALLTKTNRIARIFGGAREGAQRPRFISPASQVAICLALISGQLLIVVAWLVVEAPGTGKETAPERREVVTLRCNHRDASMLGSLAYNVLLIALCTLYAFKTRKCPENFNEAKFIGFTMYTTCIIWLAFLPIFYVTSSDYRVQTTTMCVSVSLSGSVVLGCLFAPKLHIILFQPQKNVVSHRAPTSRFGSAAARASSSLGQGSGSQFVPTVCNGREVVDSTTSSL
PARAMETER: Emax (%)
Note: unit % is implicit; provide only the numeric part.

These recorded examples may help you get a feel for the data.
> print(dat)
                                   molecule  parameter  unit.abbreviation  test.value
1  N#Cc1c(N2CCC(c3ccccc3)CC2)ccn2c(CC(F)(F)F)cnc12       Emax                  %         259
2  N#Cc1c(N2CCC(c3ccccc3)CC2)ccn2c(CC(F)(F)F)nnc12       Emax                  %         277
3  CCCc1nnc2c(C#N)c(N3CCC(c4ccccc4)CC3)ccn12       Emax                  %         272

Asked: Which Emax is reported for this molecule? FC(F)(F)c1c(N2CCC(c3ccccc3)C2)ccn2c(CC3CC3)nnc12 (racemic)
Given back: 175

Asked: Which Emax is reported for this molecule? CCc1nnc2c(C(F)(F)F)c(N3CCC(c4ccccc4)CC3)ccn12
Given back: 334

Asked: Which Emax is reported for this molecule? Clc1c(N2CCN(c3ccccc3)CC2)ccn2c(CC3CC3)nnc12
Given back: 308

Asked: Which Emax is reported for this molecule? N#Cc1c(N2CCC(c3ccccc3)CC2)ccn2c(CN3CCCC3)nnc12
Given back: 240

Asked: Which Emax is reported for this molecule? N#Cc1c(N2CCC(c3ccccc3)CC2)ccn2c(CC3CC3)nnc12
Given back: 278

Asked: Which Emax is reported for this molecule? CCc1cnc2c(C#N)c(N3CCC(c4ccccc4)CC3)ccn12
Given back: 225

Asked: Which Emax is reported for this molecule? FC(F)(F)c1c(N2CCc3ccccc3C2)ccn2c(CC3CC3)nnc12
Given back: 278

###

assay: Clearance in dog rat at 1 mg/kg, iv or […], po; assay type: ADME, organism-based, Canis lupus familiaris; details: in vivo
PARAMETER: clearance (mL/min/kg)
Note: unit mL/min/kg is implicit; provide only the numeric part.

Asked: Which clearance is reported for this molecule? FC(F)(F)c1c(N2CCC(c3ccccc3)CC2)ccn2c(CC3CC3)nnc12
Given back: 29

###

test: Drug metabolism in mouse liver microsomes at 5 uM after 15 mins; assay type: ADME, Microsome; conditions: read-out: Drug metabolism
The following molecules are listed with their measured metabolised at […], 5 µM values.
Note: unit % is implicit; provide only the numeric part.

These recorded examples may help you get a feel for the data.
> print(dat)
                                   molecule  test.value
1  FC(F)(F)Cc1nnc2c(Cl)c(N3CCC(F)(c4ccccc4)CC3)ccn12          25
2  CCCCc1nnc2c(C(F)(F)F)c(N3CCC(c4ccccc4)CC3)ccn12          54
3  FC(F)(F)Cc1nnc2c(Cl)c(N3CCC(c4ccccc4)CC3)ccn12           8
4  FC(F)(F)c1c(N2CCC(c3ccccc3)CC2)ccn2c(CC3CC3)nnc12          25

Asked: Which metabolised at […], 5 µM is reported for this molecule? Fc1ccc(C2CCN(c3ccn4c(CC5CC5)nnc4c3C(F)(F)F)CC2)c(F)c1
Given back: 16

Asked: Which metabolised at […], 5 µM is reported for this molecule? N#Cc1c(N2CCC(c3ccccc3)CC2)ccn2c(CC(F)(F)F)cnc12
Given back: 41

Asked: Which metabolised at […], 5 µM is reported for this molecule? CCc1cnc2c(C#N)c(N3CCC(c4ccccc4)CC3)ccn12
Given back: 82

###

The following molecules are listed with their measured metabolised at […], 5 µM values.
test: Drug metabolism in human liver microsomes at 5 uM after 15 mins; type: ADME, Microsome; conditions: read-out: Drug metabolism
Note: unit % is implicit; provide only the numeric part.

These recorded examples may help you get a feel for the data.
> print(dat)
                                   molecule                 parameter  unit.abbreviation  test.value
1  FC(F)(F)c1c(N2CCC(c3cccnc3)CC2)ccn2c(CC3CC3)nnc12  metabolised at […], 5 µM                  %          31
2  Fc1ccc(C2CCN(c3ccn4c(CC5CC5)nnc4c3C(F)(F)F)CC2)c(F)c1  metabolised at […], 5 µM                  %           2
3  CCc1nnc2c(C(F)(F)F)c(N3CCC(c4ccccc4)CC3)ccn12  metabolised at […], 5 µM                  %          29
4  FC(F)(F)c1c(N2CCC(c3ccccc3)C2)ccn2c(CC3CC3)nnc12 (racemic)  metabolised at […], 5 µM                  %          38
5  CCc1nnc2c(C#N)c(N3CCC(c4ccccc4)CC3)ccn12  metabolised at […], 5 µM                  %          11
6  N#Cc1c(N2CCC(c3ccccc3)CC2)ccn2c(CC(F)(F)F)nnc12  metabolised at […], 5 µM                  %           9

Asked: Which metabolised at […], 5 µM is reported for this molecule? CCCCc1nnc2c(C(F)(F)F)c(N3CCC(c4ccccc4)CC3)ccn12
Given back: 33

Asked: Which metabolised at […], 5 µM is reported for this molecule? FC(F)(F)Cc1nnc2c(Cl)c(N3CCC(c4ccccc4)CC3)ccn12
Given back: 13

Asked: Which metabolised at […], 5 µM is reported for this molecule? CCc1nnc2c(Cl)c(N3CCC(c4ccccc4)CC3)ccn12
Given back: 57

Asked: Which metabolised at […], 5 µM is reported for this molecule? Clc1c(N2CCC(c3ccccc3)CC2)ccn2c(CC3CC3)nnc12
Given back: 56

###

test system: MDR1; assay: Apparent permeability from apical to basolateral side in MDR1 expressing pig LLC-PK1 cells; type: ADME, cell-based, Sus scrofa
PARAMETER: Papp A→B
Your answer should be a number followed by the unit of measure.

Asked: Which Papp A→B is reported for this compound? FC(F)(F)c1c(N2CCC(c3ccccc3)CC2)ccn2c(CC3CC3)nnc12
Given back: 12 ×10⁻⁶ cm/s
